- experimental protocol: cytotoxicity in HPDE-C7 cells, cell-based, fluorescence, HTS (AID 430);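 also: cells exposed to compound for 48 hours before viability readout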
- measurement setup: HPDE-C7 pancreatic duct cells viability, at 10 µM
Among all 63,000 compounds or so, about 1,100 (1.7%) were called active. Rule as the data show it: active = cytotoxicity above about 50%; inactive = the rest. For the sample, actives were picked, then their nearest neighbours and some compounds at random. Entries with a potency or affinity are not part of this list.
Permitted responses: Yes (active), No (inactive)

Solved entries:
O=S(=O)(NCc1ccco1)c1cccc2cccnc12 = No
N#Cc1c(NC(=O)c2cc(C3CC3)on2)sc2c1CCC2 = Yes
CCOC(=O)c1cccc(S(=O)(=O)N(CCO)Cc2cc3cc(OC)c(OC)cc3[nH]c2=O)c1 = No
Cc1cc(C(=O)NCCN2CCN(c3cccc(Cl)c3)CC2)n(-c2ccccc2)n1 = Yes
Cc1ccccc1-c1noc(-c2cccs2)n1 = No
Cc1nn2c(N3CCN(C(=O)c4ccco4)CC3)cc(C(C)(C)C)nc2c1-c1ccccc1 = Yes
COc1ccc(S(=O)(=O)NCCC(=O)NCc2cccs2)cc1 = No
CCCC(=O)Nc1sc2c(c1C#N)CCCC2 = No

input: Hi, sorry to bother you, what did the test record for Cc1cc(C(=O)NCCCN2CCOCC2)n(-c2ccccc2)n1 ?
output: No

input: Hi, sorry to bother you, what did the test record for COc1ccc(S(=O)(=O)N(CC(N)=O)C2CCCCC2)cc1Cl ?
output: No
